- CONDITION: in benzene, 308.55 K
ASSAY METRIC: solubility (mole fraction)
Answer with the value's number alone.

input: What measured solubility (mole fraction) goes with "O=[PH](O)c1ccccc1" ?
output: 0.111

###

- CONDITION: in water, 297.79 K
ASSAY METRIC: solubility (mole fraction)
Give the figure by itself; no unit, no explanation.

input: For the molecule shown here, "O=[PH](O)c1ccccc1" , give the reported solubility (mole fraction).
output: 0.0095

###

- CONDITION: in benzene, 303.15 K
ASSAY METRIC: solubility (mole fraction)
Please state the value as a number alone, without comment.

input: # lookup: solubility (mole fraction) of "CP(=O)(O)c1ccccc1"
output: 0.0809
